Below, each entry is listed with its recorded pIC50.
Biological target: Tyrosine-protein phosphatase non-receptor type 1 (Homo sapiens)
Sequence (P18031 whole entry): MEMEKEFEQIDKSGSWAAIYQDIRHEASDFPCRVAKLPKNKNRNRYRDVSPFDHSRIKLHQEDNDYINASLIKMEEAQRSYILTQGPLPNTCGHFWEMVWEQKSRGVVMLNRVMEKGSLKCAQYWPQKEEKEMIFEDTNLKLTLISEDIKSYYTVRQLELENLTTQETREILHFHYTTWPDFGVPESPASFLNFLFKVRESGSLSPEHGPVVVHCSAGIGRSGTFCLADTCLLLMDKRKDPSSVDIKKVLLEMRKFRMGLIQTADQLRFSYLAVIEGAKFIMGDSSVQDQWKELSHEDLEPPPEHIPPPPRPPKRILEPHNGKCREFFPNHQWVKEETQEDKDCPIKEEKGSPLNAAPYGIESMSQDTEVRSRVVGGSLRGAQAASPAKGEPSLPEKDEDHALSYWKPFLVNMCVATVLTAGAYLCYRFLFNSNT
pIC50: −log10 of the molar value.

[
  {
    "Compound": "O=C1CC(c2ccc(CC(NS(=O)(=O)c3ccc(Cl)cc3Cl)c3nc4ccccc4[nH]3)cc2)S(=O)(=O)N1 (stereo not given)",
    "pIC50": 6.55
  },
  {
    "Compound": "O=C1CC(c2ccc(C[C@H](NS(=O)(=O)c3ccccc3)c3nc4ccccc4[nH]3)cc2Br)S(=O)(=O)[N-]1.[Na+] (stereo not given in full)",
    "pIC50": 6.47
  },
  {
    "Compound": "O=C1CC(c2ccc(CC(NS(=O)(=O)c3ccc(F)cc3F)c3nc4ccccc4[nH]3)cc2)S(=O)(=O)N1 (stereo not given)",
    "pIC50": 6.96
  },
  {
    "Compound": "O=C1CC(c2ccc(CC(NS(=O)(=O)c3cccc(Br)c3)c3nc4ccccc4[nH]3)cc2)S(=O)(=O)N1 (stereo not given)",
    "pIC50": 7.11
  },
  {
    "Compound": "CC(C)(C)c1cccc2[nH]c(C(Cc3ccc(C4CC(=O)NS4(=O)=O)cc3)NS(=O)(=O)c3ccc(-c4ccccc4)cc3)nc12 (stereo not given)",
    "pIC50": 6.34
  },
  {
    "Compound": "CC(=O)N[C@@H](Cc1ccccc1)C(=O)N[C@@H](Cc1ccc([C@@H]2CC(=O)NS2(=O)=O)cc1)C(N)=O",
    "pIC50": 6.62
  },
  {
    "Compound": "O=C1CC(c2ccc(CC(NS(=O)(=O)c3ccc(Cl)c(Cl)c3)c3nc4ccccc4[nH]3)cc2)S(=O)(=O)N1 (stereo not given)",
    "pIC50": 7.10
  },
  {
    "Compound": "O=C1CC(c2ccc(CC(NS(=O)(=O)c3ccc(F)c(F)c3)c3nc4ccccc4[nH]3)cc2)S(=O)(=O)N1 (stereo not given)",
    "pIC50": 6.96
  },
  {
    "Compound": "O=C1C[C@@H](c2ccc(C[C@H](NS(=O)(=O)c3ccccc3)c3nc4ccccc4[nH]3)cc2Cl)S(=O)(=O)[N-]1.[Na+]",
    "pIC50": 7.30
  },
  {
    "Compound": "O=C1CC(c2ccc(CC(NS(=O)(=O)c3ccccc3F)c3nc4ccccc4[nH]3)cc2)S(=O)(=O)N1 (stereo not given)",
    "pIC50": 6.92
  },
  {
    "Compound": "O=C1CC(c2ccc(CC(NS(=O)(=O)c3cc(F)ccc3F)c3nc4ccccc4[nH]3)cc2)S(=O)(=O)N1 (stereo not given)",
    "pIC50": 6.85
  },
  {
    "Compound": "O=C1CC(c2ccc(CC(NS(=O)(=O)c3ccccc3Cl)c3nc4ccccc4[nH]3)cc2)S(=O)(=O)N1 (stereo not given)",
    "pIC50": 6.80
  },
  {
    "Compound": "O=C1CC(c2ccc(CC(NS(=O)(=O)c3ccc(Br)cc3)c3nc4ccccc4[nH]3)cc2)S(=O)(=O)N1 (stereo not given)",
    "pIC50": 6.96
  },
  {
    "Compound": "O=C1CC(c2ccc(CC(NS(=O)(=O)c3cccc(C(F)(F)F)c3)c3nc4ccccc4[nH]3)cc2)S(=O)(=O)N1 (stereo not given)",
    "pIC50": 7.17
  },
  {
    "Compound": "Cc1cc(C[C@H](NS(=O)(=O)c2ccc(Br)c(C(F)(F)F)c2)c2nc3ccccc3[nH]2)ccc1[C@@H]1CC(=O)[N-]S1(=O)=O.[Na+]",
    "pIC50": 7.80
  }
]

Entry source: ChEMBL document CHEMBL1138056
